# Experimental System: human MRGPRD (Homo sapiens)
# Sequence (Q8TDS7 whole entry): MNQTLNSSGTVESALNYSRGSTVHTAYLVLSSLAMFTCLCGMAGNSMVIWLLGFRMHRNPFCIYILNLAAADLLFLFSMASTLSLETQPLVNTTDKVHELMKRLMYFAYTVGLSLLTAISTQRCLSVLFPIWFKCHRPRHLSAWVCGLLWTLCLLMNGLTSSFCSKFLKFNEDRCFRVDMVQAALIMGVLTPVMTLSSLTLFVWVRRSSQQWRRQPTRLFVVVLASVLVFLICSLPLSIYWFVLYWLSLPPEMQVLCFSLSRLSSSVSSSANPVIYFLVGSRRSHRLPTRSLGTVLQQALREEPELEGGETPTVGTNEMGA
# Test Details: MRGPRD antagonist activity, IP-One HTRF assay in CHO cells stably expressing human MRGPRD (versus 100 μM β-Alanine agonist)
# Description: Chinese Hamster Ovary (CHO) cells stably expressing human MRGPRD (Eurofins, San Diego CA) were plated in a 384-well plate at 20,000 cells per well in 12 μL of Optimem (Fisher Scientific 11-058-021). Plates were kept in the incubator at 37° C. overnight. […] Assay plates were read on either a Molecular Devices SpectraMax iD5 plate reader or a BMG ClarioStar plate reader. The HTRF ratio was calculated form the raw data and graphed using GraphPad Prism to calculate IC50 values. […]
pIC50: −log10 of the molar value.
Value Kind: pIC50

Compound	Value Kind	Observed Value
COc1cccc(-c2nc([C@@H]3CCCN(C(=O)Nc4ccccc4CO)C3)n3ccccc23)c1 [Compound 5-28]	pIC50	> 7.00
COc1cccc(-c2nc(C3CCCN(C(=O)Nc4ccccc4F)C3)n3ccccc23)c1 (centres unmarked) [Compound 3-28]	pIC50	6.30 to 7.00
CN(C)c1ccc(NC(=O)N2CCC[C@H](c3nc(-c4cccc(F)c4)c4ccccn34)C2)cc1 [Compound 10-28]	pIC50	5.52 to 6.00
COc1cccc(-c2nc(C3CCCN(C(=O)Nc4cccc(C#N)c4)C3)n3ccccc23)c1 (centres unmarked) [Compound 3-21]	pIC50	6.30 to 7.00
CN(C)c1ccc(NC(=O)N2CCC[C@@H](c3nc(-c4ccccc4)c4ccccn34)C2)cc1 [Compound 10-2]	pIC50	6.00 to 6.30
COc1cccc(-c2nc([C@@H]3CCCN(C(=O)NCCN(C)C)C3)n3ccccc23)c1 [Compound 1-29]	pIC50	6.00 to 6.30

So what does the record say about pIC50 for COc1cccc(-c2nc([C@@H]3CCCN(C(=O)Nc4ccc(OC(F)(F)F)cc4)C3)n3ccccc23)c1 [Compound 5-21] ?
6.00 to 6.30

And what about the compound O=C(Nc1ccccc1F)N1CCCC(c2nc(-c3ccccc3F)c3ccccn23)C1 (centres unmarked) [Compound 11-2] ?
5.52 to 6.00

These data points were gathered from patent US20240246980A1.
